These measurements were taken from patent US12533394B2.

# TARGET_OF_ASSAY: Gal3 (Homo sapiens, UniProt P17931)
# Sequence (P17931 whole entry, species assumed): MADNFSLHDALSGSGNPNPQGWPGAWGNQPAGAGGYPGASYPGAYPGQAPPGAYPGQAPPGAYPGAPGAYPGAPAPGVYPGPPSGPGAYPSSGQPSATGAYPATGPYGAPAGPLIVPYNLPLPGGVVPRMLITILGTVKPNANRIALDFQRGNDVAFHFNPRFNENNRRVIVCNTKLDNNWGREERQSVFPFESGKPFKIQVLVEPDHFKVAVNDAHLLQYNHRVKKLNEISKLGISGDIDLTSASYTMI
MEASURE_NAME: pIC50
Remember the convention: pIC50 equals -log10 of concentration in molar.

Measured pIC50 for this entry CC(=O)N[C@H]1C(O)O[C@H](CO)[C@H](O)[C@@H]1O[C@@H]1O[C@H](CO)[C@H](O)[C@H](O)[C@H]1O (stereo partly shown) [synthetic TFD, Galβ1-3GalNAc] on Gal3 (Homo sapiens, UniProt P17931): 3.70
